- protocol notes: probe aLAP1 signal on lysate-treated microarray – cell lysate, small-molecule microarray, COS7 lysate, primary screen (AID 1124);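 also: lysate comes from COS7 cells expressing LAP1 and is applied at 0.3 µg/mL; score merges spot fluorescence near 667 nm with signal-to-noise over triplicate slides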
- condition details: probe aLAP1, fluorescence, higher = more signal
outcome measure: composite z-score
// return just the number, without any unit appended

Query: Dear colleague, I am looking for the recorded composite z-score of the following compound: OCCCC1=CC(c2cccs2)N(Cc2cccc(OC(F)(F)F)c2)CC1 (centres undefined)
Result: 0.144

Query: Dear colleague, I am looking for the recorded composite z-score of the following compound: CC(C)c1ccc(NN2C(C(O)c3cccs3)C=CC3C(=O)N(c4ccccc4)C(=O)C32)cc1 (centres undefined)
Result: 0.665

Query: Dear colleague, I am looking for the recorded composite z-score of the following compound: `CC(C)(C)OC(=O)CC[C@@]1(C(=O)N2CCCCC2)N=C(c2ccc(OCCCO)cc2)O[C@@H]1c1ccccc1CN=[N+]=[N-]`
Result: 0.639

Query: Dear colleague, I am looking for the recorded composite z-score of the following compound: `CCCC=C(CCC)[C@@H](NC(=O)Cc1ccccc1)c1ccc(C(=O)OC)cc1`
Result: 0.615
